Measured IC50 of individual entries
# assay.procedure: WHO-TDR: Cytotoxicity
# Type: toxicity, cell-based
# condition.details: human, MRC5 cells

Some compounds with recorded IC50:
INPUT: Item O=C(CSc1nc(CC(=O)N2CCN(c3ccccc3F)CC2)cs1)Nc1ccc(F)cc1 has what recorded IC50?
OUTPUT: > 14.7 µg/mL

INPUT: Item COc1ccc(C(=O)Nc2nnc(SCC(=O)Nc3cc(C(F)(F)F)ccc3Cl)s2)cc1OC has what recorded IC50?
OUTPUT: > 16 µg/mL

INPUT: Item CSCc1csc(NC(=O)Cc2ccc(Cl)cc2)n1 has what recorded IC50?
OUTPUT: 3.7 µg/mL

INPUT: Item CN(C1CC1)S(=O)(=O)c1ccc(C(=O)Nc2nnc(-c3ccc(Br)s3)o2)cc1 has what recorded IC50?
OUTPUT: 3.91 µg/mL

INPUT: Item Cc1cccc(-n2nc3c(c2NC(=O)Nc2cccc(Cl)c2)CSC3)c1 has what recorded IC50?
OUTPUT: > 11.5 µg/mL

Turning now to a further compound:
INPUT: Item CCc1ccccc1-n1c(C)cn2c3c(=O)n(CC(C)C)c(=O)n(C)c3nc12 has what recorded IC50?
OUTPUT: > 11.4 µg/mL
